# target system: Peroxisome proliferator-activated receptor alpha (Homo sapiens) (UniProt Q07869)
# Sequence (Q07869 whole entry, looked up): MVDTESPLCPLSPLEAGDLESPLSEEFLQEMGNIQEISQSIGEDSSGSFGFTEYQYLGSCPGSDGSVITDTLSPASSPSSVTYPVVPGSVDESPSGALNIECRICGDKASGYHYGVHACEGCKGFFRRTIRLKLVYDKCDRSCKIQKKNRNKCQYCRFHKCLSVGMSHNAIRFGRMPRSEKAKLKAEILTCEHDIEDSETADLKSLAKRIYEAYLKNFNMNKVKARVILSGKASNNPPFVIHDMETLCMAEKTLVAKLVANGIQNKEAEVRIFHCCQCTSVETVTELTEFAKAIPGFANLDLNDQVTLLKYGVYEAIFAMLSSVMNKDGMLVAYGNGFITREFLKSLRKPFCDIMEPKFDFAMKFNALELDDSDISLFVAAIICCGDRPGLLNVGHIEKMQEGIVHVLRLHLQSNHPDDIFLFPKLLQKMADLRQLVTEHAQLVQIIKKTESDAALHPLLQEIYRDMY
# assay comment: qHTS assay for small molecule agonists of the peroxisome proliferator-activated receptor alpha (PPARalpha) signaling pathway (AID 651778); further: % of control where 0% means no effect
# run conditions: PathHunter PPARalpha complementation, chemiluminescence, 6 h; active compounds read high
value type: max response (%)
All answers are understood in %, so give the number only.

Known max response results, listed for orientation:
CNC(=O)O/N=C(\SC)C(=O)N(C)C :: 0.554
Cn1cc(-c2ccccc2)c(=O)c(-c2cccc(C(F)(F)F)c2)c1 :: 1.29
C=CCC1=C(C)[C@@H](OC(=O)[C@@H]2[C@@H](C=C(C)C)C2(C)C)CC1=O :: 2.33

max response in this record for `CCCCN(CC)C(=O)SCCC` : 0.725

max response in this record for `CCS(=O)(=O)c1cccnc1S(=O)(=O)NC(=O)Nc1nc(OC)cc(OC)n1` : -2.57

max response in this record for `Cn1c(-c2ccccc2)cc(-c2ccccc2)[n+]1C` : -0.162

max response in this record for `O=C(NC(=O)c1c(F)cccc1F)Nc1cc(Cl)c(OC(F)(F)C(F)F)c(Cl)c1` : -1.91

max response in this record for `N#CC(Cl)Cl` : -3.95

max response in this record for `O=C(NC(=O)c1c(F)cccc1F)Nc1ccc(Cl)cc1` : -1.48

max response in this record for `CN1COCN(Cc2cnc(Cl)s2)/C1=N\[N+](=O)[O-]` : -1.32

max response in this record for CN/C(=N/[N+](=O)[O-])NCC1CCOC1 (configuration not stated) : -0.384

max response in this record for `COc1nn(C(=O)NS(=O)(=O)c2ccccc2OC(F)(F)F)c(=O)n1C` : -1.08

max response in this record for `COc1cc(OC)nc(NC(=O)NS(=O)(=O)c2ncccc2C(F)(F)F)n1` : -1.83

max response in this record for COCc1cnc(C2=NC(C)(C(C)C)C(=O)N2)c(C(=O)O)c1 (configuration not stated) : 0.0113

max response in this record for `[Cd+2].[Cl-].[Cl-]` : -8.85

max response in this record for Cc1c(F)c(F)c(COC(=O)C2C(/C=C(\Cl)C(F)(F)F)C2(C)C)c(F)c1F (configuration not stated) : -0.765
